The measurements presented in this section are drawn from paper PMC7826789.

Tested on: MEK1;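 further: KINOMEscan scanMAX binding as percent activity remaining versus control; lower means stronger binding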
Construct: gene MAP2K1
Test Context: Compound Concentration (nM):1000
Attribute: Percent Control
Reported Endpoint: Percent Control

1. NS(=O)(=O)c1ccc(N/N=C2\C(=O)Nc3ccc(C(=O)NCc4ccncc4)cc32)cc1 [GW300657X] ... 100%
2. COc1ccc2c(-c3ccnc(Nc4cccc(OC(F)(F)F)c4)n3)cnn2n1 [GW810372X] ... 100%
3. CC1=C(C(=O)Nc2ccc3[nH]ncc3c2)C(c2ccc(Cl)c(Cl)c2)CC(=O)N1 (stereo not shown) [GSK299115A] ... 73%
4. O=C1Nc2ccc(C(=O)c3ccco3)cc2C1=Cc1cc(Cl)c(O)c(Cl)c1 [GW406108X] ... 76%
